IC50 for Histone deacetylase 4 (Homo sapiens) - collated from the literature.

These recorded examples may help you get a feel for the data.
1) O=C(NO)c1cccc(C(=O)NCCc2cccnc2)c1 > 33 µM
2) CCCNNC(=O)c1cnc(NCc2ccc(OC)cc2)cn1 > 20 µM
3) O=C(NO)c1ccc(C(=O)NCCc2ccncc2)cc1 > 33.3 µM
4) Cc1cnc(Nc2ccc(OCCN3CCCC3)cc2)nc1Nc1ccc(C(=O)NO)cc1 > 5 µM
5) O=C(NO)c1cccc(CNc2ccccc2)c1 > 33 µM

Pending compound:
Form field: reported IC50 of O=C(NO)[C@H](Cc1ccccc1)n1nnc(-c2ccccc2)c1C#Cc1ccccc1
> 20 µM
